assay: Binding affinity to Candida albicans Fructose-1,6-Bisphosphate Aldolase assessed as inhibition constant incubated for 12 to 40 mins by NADH-linked enzymatic assay
pKi: −log10 of the molar value.

Cpd Smiles | pKi
CCCCn1sc2ccccc2c1=O | 5.22
O=c1c2ccccc2[se]n1-c1ccc(-n2cncn2)cc1 | 6.31
O=c1c2ccccc2[se]n1-c1ccc(C(F)(F)F)cc1 | 7.24
Nc1ccc(-n2[se]c3ccccc3c2=O)cc1 | 6.25

---

system: Candida albicans; experiment: Antifungal activity against fluconazole resistant Candida albicans 904 incubated for 48 hrs by CLSI based broth microdilution method; type: functional
Entries and their measured MIC80 follow.
Property Measured: MIC80 (µg/mL)

Cpd Smiles | Target Desc | Property Measured | Readout Number
N#Cc1ccc(-n2[se]c3ccccc3c2=O)cc1 | Candida albicans | MIC80 | 16
O=c1c2ccccc2[se]n1-c1ccc(-c2ccccc2)cc1 | Candida albicans | MIC80 | 64
NC(=O)c1ccc(-n2[se]c3ccccc3c2=O)cc1 | Candida albicans | MIC80 | 64
O=c1c2ccccc2[se]n1-c1ccc(Cl)cc1Cl | Candida albicans | MIC80 | 4
O=C(O)c1ccc(-n2[se]c3ccccc3c2=O)cc1 | Candida albicans | MIC80 | 64
Cc1ccc(-n2[se]c3ccccc3c2=O)cc1 | Candida albicans | MIC80 | 4
CCCCNC(=O)Nc1ccc(-n2[se]c3ccccc3c2=O)cc1 | Candida albicans | MIC80 | 8
COc1ccc(-n2[se]c3ccccc3c2=O)cc1 | Candida albicans | MIC80 | 4
O=c1c2ccccc2[se]n1-c1ccc(-n2cncn2)cc1 | Candida albicans | MIC80 | 4
O=c1c2ccccc2[se]n1-c1ccc(F)cc1F | Candida albicans | MIC80 | 4
CCCCc1ccc(-n2[se]c3ccccc3c2=O)cc1 | Candida albicans | MIC80 | 8
O=c1c2ccccc2[se]n1Cc1ccccc1 | Candida albicans | MIC80 | 4

---

The following molecules are shown together with reported Kinact values.
test system: Candida albicans; assay: Binding affinity to Candida albicans Fructose-1,6-Bisphosphate Aldolase assessed as Kinact incubated for 12 to 40 mins by NADH-linked enzymatic assay; details: time 12-40 min
Property Measured: Kinact (s⁻¹)

Cpd Smiles | Target Desc | Readout Number
CCCCn1sc2ccccc2c1=O | Candida albicans | 0.00178
O=c1c2ccccc2[se]n1-c1ccc(C(F)(F)F)cc1 | Candida albicans | 0.00092
O=c1c2ccccc2[se]n1-c1ccc(-n2cncn2)cc1 | Candida albicans | 0.00506
Nc1ccc(-n2[se]c3ccccc3c2=O)cc1 | Candida albicans | 0.00199

---

test system: Candida albicans; test: Antifungal activity against fluconazole resistant Candida albicans 904 incubated for 48 hrs by CLSI based broth microdilution method; type: functional
Listed compounds paired with reported MIC80
Property Measured: MIC80 (µg/mL)

Cpd Smiles | Target Desc | Unit Name | Bound Sign | Readout Number
Nc1ccc(-n2[se]c3ccccc3c2=O)cc1 | Candida albicans | µg/mL | = | 8
O=c1c2ccccc2[se]n1CCc1ccccc1 | Candida albicans | µg/mL | = | 4
COC(=O)c1ccc(-n2[se]c3ccccc3c2=O)cc1 | Candida albicans | µg/mL | = | 8
O=c1c2ccccc2[se]n1-c1ccccn1 | Candida albicans | µg/mL | = | 2
OC(Cn1cncn1)(Cn1cncn1)c1ccc(F)cc1F | Candida albicans | µg/mL | > | 64
O=C(NCc1ccccc1)n1[se]c2ccccc2c1=O | Candida albicans | µg/mL | = | 16
O=c1c2ccccc2[se]n1-c1nccs1 | Candida albicans | µg/mL | = | 4
CC(=O)c1ccc(-n2[se]c3ccccc3c2=O)cc1 | Candida albicans | µg/mL | = | 16
O=C(c1ccccc1)c1ccc(-n2[se]c3ccccc3c2=O)cc1 | Candida albicans | µg/mL | = | 4
CC(C)c1ccc(-n2[se]c3ccccc3c2=O)cc1 | Candida albicans | µg/mL | = | 4
O=c1c2ccccc2[se]n1-c1cccc(C(F)(F)F)c1 | Candida albicans | µg/mL | = | 2
O=C(NCc1ccccc1)N1Cc2ccccc2C1=O | Candida albicans | µg/mL | > | 64
O=c1c2ccccc2[se]n1-c1ccc(-n2ccnc2)cc1 | Candida albicans | µg/mL | = | 4
O=c1c2ccccc2[se]n1-c1ccc(C(F)(F)F)cc1 | Candida albicans | µg/mL | = | 8
CCc1ccc(-n2[se]c3ccccc3c2=O)cc1 | Candida albicans | µg/mL | = | 4
O=C1c2ccccc2CN1Cc1ccccc1 | Candida albicans | µg/mL | > | 64
O=C1c2ccccc2CN1c1ccccc1 | Candida albicans | µg/mL | > | 64
O=c1c2ccccc2[se]n1-c1ccccc1 | Candida albicans | µg/mL | = | 2
